system: rodent lifetime carcinogenesis bioassay, tumor incidence TD50; experiment: carcinogenic potency in animals, long-term in vivo studies, CPDB compilation (AID 1745844); settings: hamster; strain Syrian Golden; females; inhaled; site: stomach; lesion: adenoma; dosed 78 weeks; study length 104 weeks
experimentalReadout: TD50

Let me know recorded TD50 for C=CCl , thanks.
205 mg/kg/day

###

tested on: rodent lifetime carcinogenesis bioassay, tumor incidence TD50; test: carcinogenic potency in animals, long-term in vivo studies, CPDB compilation (AID 1745844); details: rat; strain Fischer 344; males; in drinking water; site: all sites; lesion: several types; types named in the paper; dosed 118 weeks; study length 128 weeks
experimentalReadout: TD50 (mg/kg/day)
The answer is to be given in mg/kg/day; state only the numeric part.

Let me know recorded TD50 for CN(CCCC(=O)c1cccnc1)N=O , thanks.
0.14

###

tested on: rodent lifetime carcinogenesis bioassay, tumor incidence TD50; assay: carcinogenic potency in animals, long-term in vivo studies, CPDB compilation (AID 1745844); details: rat; strain Fischer 344; males; in drinking water; site: palate + pharynx + tongue; lesion: squamous-cell carcinoma + squamous-cell papilloma; dosed 88 weeks; study length 92 weeks
experimentalReadout: TD50

Let me know recorded TD50 for COc1cc(-c2ccc(N)c(OC)c2)ccc1N , thanks.
4.22 mg/kg/day

###

test system: rodent lifetime carcinogenesis bioassay, tumor incidence TD50; test: carcinogenic potency in animals, long-term in vivo studies, CPDB compilation (AID 1745844); conditions: mouse; strain Charles River CD1; females; in feed; site: any site (literature study); lesion: malignant tumor; dosed 78 weeks; study length 78 weeks
Active and inactive are the calls of the source. The rule behind the calls is not given here.
experimentalReadout: TD50

Let me know recorded TD50 for CCc1cccc2c3c([nH]c12)C(CC)(CC(=O)O)OCC3 (stereo unspecified) , thanks.
336 mg/kg/day (inactive)

###

system: rodent lifetime carcinogenesis bioassay, tumor incidence TD50; experiment: carcinogenic potency in animals, long-term in vivo studies, CPDB compilation (AID 1745844); conditions: mouse; strain B6C3F1; females; by gavage; site: all sites; lesion: hemangiosarcoma; dosed 70 weeks; study length 83 weeks
experimentalReadout: TD50 (mg/kg/day)
The answer is to be given in mg/kg/day; state only the numeric part.

Let me know recorded TD50 for CC(C)CCC[C@@H](C)[C@H]1CC[C@H]2[C@@H]3CC=C4C[C@@H](OC(=O)Cc5ccc(N(CCCl)CCCl)cc5)CC[C@]4(C)[C@H]3CC[C@]12C , thanks.
1.52

###

system: rodent lifetime carcinogenesis bioassay, tumor incidence TD50; assay: carcinogenic potency in animals, long-term in vivo studies, CPDB compilation (AID 1745844); conditions: mouse; strain Swiss albino; males; in drinking water; site: liver; lesion: angiosarcoma; dosed 106 weeks; study length 106 weeks
experimentalReadout: TD50 (mg/kg/day)
The answer is to be given in mg/kg/day; state only the numeric part.

Let me know recorded TD50 for CC(=O)NNc1ccccc1 , thanks.
146

###

tested on: rodent lifetime carcinogenesis bioassay, tumor incidence TD50; test: carcinogenic potency in animals, long-term in vivo studies, CPDB compilation (AID 1745844); settings: rat; strain F344/DuCrj; females; in feed; site: urinary bladder; lesion: squamous-cell papilloma; dosed 104 weeks; study length 104 weeks
experimentalReadout: TD50 (mg/kg/day)
The answer is to be given in mg/kg/day; state only the numeric part.

Let me know recorded TD50 for O=c1cc[nH]c(=O)[nH]1 , thanks.
29300
